# Test system: LZK;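 note: KINOMEscan scanMAX binding as percent activity remaining versus control; lower means stronger binding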
# Construct: gene MAP3K13
# assayContext: Compound Concentration (nM):1000
Output Fulfilled for Percent Control not less than 90%; output Not fulfilled otherwise.

Use the examples below as a reference point.
| compound | assignedCategory |
| --- | --- |
| COc1ccc2c(-c3ccnc(Nc4cccc(OC(F)(F)F)c4)n3)cnn2n1 [GW810372X] | Fulfilled |
| CN(C)c1cc2c(Nc3ccc4c(cnn4Cc4ccccc4)c3)ncnc2cn1 [GW282974X] | Fulfilled |
| Cl.O=C(Nc1ccc(Oc2ccc3[nH]c(NC(=O)c4ccco4)nc3c2)cc1)Nc1cc(C(F)(F)F)ccc1F [GW683134A] | Fulfilled |

Given COc1cc2ncnc(Nc3ccc4c(cnn4Cc4ccccc4)c3)c2cc1OC.Cl [GW282449A] , state whether its Percent Control is at least 90%.
Fulfilled

Given CC1=C(C(=O)Nc2ccc3[nH]ncc3c2)C(c2ccc(Cl)c(Cl)c2)CC(=O)N1 (centres unmarked) [GSK299115A] , state whether its Percent Control is at least 90%.
Not fulfilled

Given CN1CCN(C(=O)c2ccc(NC(=O)Nc3ccc(N(C)c4ccnc(Nc5ccc(CS(C)(=O)=O)cc5)n4)cc3)cc2)CC1.Cl [GW830263A] , state whether its Percent Control is at least 90%.
Not fulfilled

Given COC(=O)Nc1nc2ccc(Oc3ccc(NC(=O)Nc4cc(C(F)(F)F)ccc4F)cc3)cc2s1.Cl [GW693917A] , state whether its Percent Control is at least 90%.
Not fulfilled

Given NS(=O)(=O)c1ccc(Nc2ncc(-c3ccccc3)o2)cc1 [GW572399X] , state whether its Percent Control is at least 90%.
Fulfilled

Given COc1cc(C=NNc2ncnc3c2cnn3-c2ccccc2)ccc1O [GW513184X] , state whether its Percent Control is at least 90%.
Fulfilled

Given NS(=O)(=O)c1ccc(N/N=C2\C(=O)Nc3ccc(C(=O)NCc4ccncc4)cc32)cc1 [GW300657X] , state whether its Percent Control is at least 90%.
Not fulfilled

Given Cl.O=C(O[C@H]1CN[C@H](C#Cc2cc3ncnc(Nc4ccc5c(cnn5Cc5ccccc5)c4)c3s2)C1)N1CCOCC1 [GSK200398A] , state whether its Percent Control is at least 90%.
Fulfilled

Given CC1=C(C(=O)Nc2ccc3[nH]ncc3c2)C(c2ccc3ccccc3c2)CC(=O)N1 (centres unmarked) [GSK270822A] , state whether its Percent Control is at least 90%.
Not fulfilled

Given COc1cc2ncn(-c3cc(O[C@H](C)c4ccccc4Cl)c(C(N)=O)s3)c2cc1OC [GSK237701A] , state whether its Percent Control is at least 90%.
Not fulfilled
